test: Acute toxicity (DL 50); details: in vivo, ip; I.P.
Reported Metric: LD50 (mg/kg)
Report the value in mg/kg with no unit label.

Use these answered entries as a reference point.
NCC(=O)NN=Cc1ccccc1Cl [7a, reference compound]    360
CC(=NNC(=O)C(C)(C)O)c1ccccc1Cl    482
CC(=NNC(=O)CC(C)(C)O)c1ccccc1Cl [1e, reference compound]    227

So, CC(C)(O)C(=O)NN=Cc1ccccc1Cl [1a, reference compound] ? Its LD50 was 490

---

assay: Acute toxicity (DL 50); conditions: in vivo, ip; I.P.
Reported Metric: LD50 (mg/kg)
API: value field is a number in mg/kg; no unit string.

Memo: COCC(=O)NN=Cc1ccccc1Cl [6a, reference compound] , reported LD50: 477

For record CC(=NNC(=O)CO)c1ccccc1Cl the listed LD50 is 583
